- tested_target: Lethal factor (Bacillus anthracis) (UniProt P15917)
- Sequence (P15917 whole entry, looked up): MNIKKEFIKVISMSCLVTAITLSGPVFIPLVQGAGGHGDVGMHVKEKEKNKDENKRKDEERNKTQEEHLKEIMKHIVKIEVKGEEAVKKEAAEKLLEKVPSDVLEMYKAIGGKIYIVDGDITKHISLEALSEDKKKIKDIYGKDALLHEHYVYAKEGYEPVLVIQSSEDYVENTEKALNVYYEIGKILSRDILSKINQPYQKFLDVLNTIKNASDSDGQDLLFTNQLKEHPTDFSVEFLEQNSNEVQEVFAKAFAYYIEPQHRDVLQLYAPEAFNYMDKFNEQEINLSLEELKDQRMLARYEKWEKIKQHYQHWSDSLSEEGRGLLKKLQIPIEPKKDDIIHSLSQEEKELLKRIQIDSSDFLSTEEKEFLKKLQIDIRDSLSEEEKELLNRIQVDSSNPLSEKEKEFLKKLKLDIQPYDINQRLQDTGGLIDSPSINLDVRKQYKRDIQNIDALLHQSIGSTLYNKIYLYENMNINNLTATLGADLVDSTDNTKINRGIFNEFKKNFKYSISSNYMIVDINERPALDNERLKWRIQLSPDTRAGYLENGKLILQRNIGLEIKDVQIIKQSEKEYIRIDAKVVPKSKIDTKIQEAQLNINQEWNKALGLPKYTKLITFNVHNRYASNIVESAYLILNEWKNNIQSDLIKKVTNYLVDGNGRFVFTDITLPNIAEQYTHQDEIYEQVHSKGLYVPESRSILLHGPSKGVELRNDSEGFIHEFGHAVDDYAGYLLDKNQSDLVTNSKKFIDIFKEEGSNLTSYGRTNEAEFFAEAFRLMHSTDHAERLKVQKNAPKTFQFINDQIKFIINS
- assay_explanation: Lethal factor protease inhibitors, Bacillus anthracis, multiplex microsphere cleavage assay, validation set (AID 588461)
- test_context: flow cytometry, at 10 µM, hits give high values
compounds and their reported inhibition
Numeric only. Scale: %

compound	inhibition [%]
Cc1ccc2[nH]c(=O)c(Cc3ccccc3)c(O)c2c1	2.6
Cc1ccccc1OCCSc1nc2ncnc(N)c2[nH]1	0.1
CCc1cc(-c2[nH]ncc2-c2ccc3c(c2)OCO3)c(O)cc1O	2.3
OCC(O)CN1CCN(c2ccccc2)CC1 (configuration not stated)	-2.7
CCOC(=O)C1CCCN(Cc2nc(Cc3cccc(F)c3)no2)C1 (configuration not stated)	0.6
CC1CCc2cc(F)cc3c(=O)c(C(=O)O)cn1c23 (configuration not stated)	3.5

Q. Hello, I am looking for reported inhibition with Lethal factor (Bacillus anthracis) (UniProt P15917) for COc1ccc(C(=O)Nc2cccnc2)cc1C(=O)Nc1cccnc1 . Could you help?
A. -0.7

Q. Query the reported inhibition for Lethal factor (Bacillus anthracis) (UniProt P15917); item: CN1C(=O)NC(c2ccc(O)cc2)C2=C1CN(c1cccc3ccccc13)C2=O (configuration not stated)
A. -10.8

Q. Kindly state the measured inhibition obtained for O=C(CCCC(=O)OCC1CCCO1)OCC1CCCO1 (configuration not stated) with Lethal factor (Bacillus anthracis) (UniProt P15917).
A. -1.6

Q. Item Nc1nc2c(ncn2COC(CO)CO)c(=O)[nH]1 with Lethal factor (Bacillus anthracis) (UniProt P15917) - inhibition?
A. -4.8

Q. Return inhibition measured with Lethal factor (Bacillus anthracis) (UniProt P15917) given this compound: CC(C)C1Cc2[nH]c(=O)c(C(=O)O)cc2CO1 (configuration not stated)
A. -1.4

Q. Query the reported inhibition for Lethal factor (Bacillus anthracis) (UniProt P15917); item: CCOc1ccc(C(=O)N2CCCC2C(=O)O)cc1 (configuration not stated)
A. 1.5
